assaySummary: activity coefficient (dimensionless); of the first substance listed, at infinite dilution; xn = mol fraction of the nth substance listed
conditionDescription: 348.15 K; Liquid; Chromatography; x1 = 0
Some compounds, each annotated with its measured activity coefficient.
The reply should be a number, written without any unit.

Please review the entries below; each comes with its answer.
compound: CCC[N+](=O)[O-] [1-nitropropane] + COCC[N+]1(C)CCOCC1.O=S(=O)([N-]S(=O)(=O)C(F)(F)F)C(F)(F)F
reportedResult: 0.783
--
compound: C=CCCCCCCCC [1-decene] + COCC[N+]1(C)CCOCC1.O=S(=O)([N-]S(=O)(=O)C(F)(F)F)C(F)(F)F
reportedResult: 65.7
--
compound: C=Cc1ccccc1 [styrene] + COCC[N+]1(C)CCOCC1.O=S(=O)([N-]S(=O)(=O)C(F)(F)F)C(F)(F)F
reportedResult: 1.76
--
compound: CCC(C)(C)C [2,2-dimethylbutane] + COCC[N+]1(C)CCOCC1.O=S(=O)([N-]S(=O)(=O)C(F)(F)F)C(F)(F)F
reportedResult: 23.2

--- query ---
Q: Find the recorded activity coefficient belonging to CCc1ccccc1 [ethylbenzene] + COCC[N+]1(C)CCOCC1.O=S(=O)([N-]S(=O)(=O)C(F)(F)F)C(F)(F)F and report it.
A: 3.1

====

Some compounds, each annotated with its measured activity coefficient.
assaySummary: activity coefficient (dimensionless); of the first substance listed, at infinite dilution; xn = mol fraction of the nth substance listed
conditionDescription: 338.15 K; Liquid; Chromatography; x1 = 0
The reply should be a number, written without any unit.

Please review the entries below; each comes with its answer.
compound: CC(C)CC(C)(C)C [2,2,4-trimethylpentane] + COCC[N+]1(C)CCOCC1.O=S(=O)([N-]S(=O)(=O)C(F)(F)F)C(F)(F)F
activity coefficient: 45
--
compound: Cc1ccc(C)cc1 [1,4-dimethylbenzene] + COCC[N+]1(C)CCOCC1.O=S(=O)([N-]S(=O)(=O)C(F)(F)F)C(F)(F)F
activity coefficient: 3.03

Q: Find the recorded activity coefficient belonging to C1CCOC1 [tetrahydrofuran] + COCC[N+]1(C)CCOCC1.O=S(=O)([N-]S(=O)(=O)C(F)(F)F)C(F)(F)F and report it.
A: 0.873

Q: Find the recorded activity coefficient belonging to CCCO [propan-1-ol] + COCC[N+]1(C)CCOCC1.O=S(=O)([N-]S(=O)(=O)C(F)(F)F)C(F)(F)F and report it.
A: 1.96

Q: Find the recorded activity coefficient belonging to CCCOCCC [dipropyl ether] + COCC[N+]1(C)CCOCC1.O=S(=O)([N-]S(=O)(=O)C(F)(F)F)C(F)(F)F and report it.
A: 9.92

====

assaySummary: activity coefficient (dimensionless); of the first substance listed, at infinite dilution; xn = mol fraction of the nth substance listed
conditionDescription: 358.15 K; Liquid; Chromatography; x1 = 0
activity coefficient less than 20 is label 1; activity coefficient greater than or equal to 20 is label 0.

Use the examples below as a reference point.
molecule: CCC(C)CC [3-methylpentane] + COCC[N+]1(C)CCOCC1.O=S(=O)([N-]S(=O)(=O)C(F)(F)F)C(F)(F)F
discreteLabel: label 0
//
molecule: CCCCC [pentane] + COCC[N+]1(C)CCOCC1.O=S(=O)([N-]S(=O)(=O)C(F)(F)F)C(F)(F)F
discreteLabel: label 1
//
molecule: c1ccncc1 [pyridine] + COCC[N+]1(C)CCOCC1.O=S(=O)([N-]S(=O)(=O)C(F)(F)F)C(F)(F)F
discreteLabel: label 1
//
molecule: CCc1ccccc1 [ethylbenzene] + COCC[N+]1(C)CCOCC1.O=S(=O)([N-]S(=O)(=O)C(F)(F)F)C(F)(F)F
discreteLabel: label 1

Read the next record carefully.
Q: Determine if CCCCCC [hexane] + COCC[N+]1(C)CCOCC1.O=S(=O)([N-]S(=O)(=O)C(F)(F)F)C(F)(F)F shows activity coefficient strictly lower than 20.
A: label 0

====

assaySummary: activity coefficient (dimensionless); of the first substance listed, at infinite dilution; xn = mol fraction of the nth substance listed
conditionDescription: 318.15 K; Liquid; Chromatography; x1 = 0
quantityName: activity coefficient
The reply should be a number, written without any unit.

Please review the entries below; each comes with its answer.
molecule: CCC(C)(C)OC [2-methoxy-2-methylbutane] + COCC[N+]1(C)CCOCC1.O=S(=O)([N-]S(=O)(=O)C(F)(F)F)C(F)(F)F
quantityName: activity coefficient
reportedResult: 5.55
//
molecule: C#CCCCCCC [1-octyne] + COCC[N+]1(C)CCOCC1.O=S(=O)([N-]S(=O)(=O)C(F)(F)F)C(F)(F)F
quantityName: activity coefficient
reportedResult: 11.4
//
molecule: CCCCCC [hexane] + COCC[N+]1(C)CCOCC1.O=S(=O)([N-]S(=O)(=O)C(F)(F)F)C(F)(F)F
quantityName: activity coefficient
reportedResult: 36.1
//
molecule: CCCCCCC [heptane] + COCC[N+]1(C)CCOCC1.O=S(=O)([N-]S(=O)(=O)C(F)(F)F)C(F)(F)F
quantityName: activity coefficient
reportedResult: 54.4

--- query ---
Q: Find the recorded activity coefficient belonging to CCOC(C)=O [ethyl acetate] + COCC[N+]1(C)CCOCC1.O=S(=O)([N-]S(=O)(=O)C(F)(F)F)C(F)(F)F and report it.
A: 0.984

====

assaySummary: activity coefficient (dimensionless); of the first substance listed, at infinite dilution; xn = mol fraction of the nth substance listed
conditionDescription: 328.15 K; Liquid; Chromatography; x1 = 0
Some molecules, each annotated with its measured activity coefficient.
The reply should be a number, written without any unit.

molecule: C=C(C)c1ccccc1 [(1-methylethenyl)benzene] + COCC[N+]1(C)CCOCC1.O=S(=O)([N-]S(=O)(=O)C(F)(F)F)C(F)(F)F
reportedResult: 2.74

molecule: CCCOCCC [dipropyl ether] + COCC[N+]1(C)CCOCC1.O=S(=O)([N-]S(=O)(=O)C(F)(F)F)C(F)(F)F
reportedResult: 10.3

molecule: CCC(=O)CC [pentan-3-one] + COCC[N+]1(C)CCOCC1.O=S(=O)([N-]S(=O)(=O)C(F)(F)F)C(F)(F)F
reportedResult: 0.912

molecule: c1ccncc1 [pyridine] + COCC[N+]1(C)CCOCC1.O=S(=O)([N-]S(=O)(=O)C(F)(F)F)C(F)(F)F
reportedResult: 0.644

molecule: Cc1ccccc1 [toluene] + COCC[N+]1(C)CCOCC1.O=S(=O)([N-]S(=O)(=O)C(F)(F)F)C(F)(F)F
reportedResult: 2.01

Q: Find the recorded activity coefficient belonging to C=CCCCCC [1-heptene] + COCC[N+]1(C)CCOCC1.O=S(=O)([N-]S(=O)(=O)C(F)(F)F)C(F)(F)F and report it.
A: 23

Q: Find the recorded activity coefficient belonging to CO [methanol] + COCC[N+]1(C)CCOCC1.O=S(=O)([N-]S(=O)(=O)C(F)(F)F)C(F)(F)F and report it.
A: 1.18

====

assaySummary: activity coefficient (dimensionless); of the first substance listed, at infinite dilution; xn = mol fraction of the nth substance listed
conditionDescription: 348.15 K; Liquid; Chromatography; x1 = 0
activity coefficient less than 1 is condition met; activity coefficient greater than or equal to 1 is condition not met.

Use the examples below as a reference point.
molecule: CC(C)CO [2-methyl-1-propanol] + COCC[N+]1(C)CCOCC1.O=S(=O)([N-]S(=O)(=O)C(F)(F)F)C(F)(F)F
discreteLabel: condition not met
//
molecule: c1ccccc1 [benzene] + COCC[N+]1(C)CCOCC1.O=S(=O)([N-]S(=O)(=O)C(F)(F)F)C(F)(F)F
discreteLabel: condition not met

Q: Determine if C=C(C)c1ccccc1 [(1-methylethenyl)benzene] + COCC[N+]1(C)CCOCC1.O=S(=O)([N-]S(=O)(=O)C(F)(F)F)C(F)(F)F shows activity coefficient strictly lower than 1.
A: condition not met

Q: Determine if CCCC=O [butanal] + COCC[N+]1(C)CCOCC1.O=S(=O)([N-]S(=O)(=O)C(F)(F)F)C(F)(F)F shows activity coefficient strictly lower than 1.
A: condition met

====

assaySummary: activity coefficient (dimensionless); of the first substance listed, at infinite dilution; xn = mol fraction of the nth substance listed
conditionDescription: 338.15 K; Liquid; Chromatography; x1 = 0
Threshold check on activity coefficient: at or above 8 gives yes (1), strictly below gives no (0).

Q: Kindly determine if activity coefficient recorded for CCCCCCCCCC [decane] + COCC[N+]1(C)CCOCC1.O=S(=O)([N-]S(=O)(=O)C(F)(F)F)C(F)(F)F is above or exactly 8.
A: yes (1)

Q: Kindly determine if activity coefficient recorded for CCC(=O)CC [pentan-3-one] + COCC[N+]1(C)CCOCC1.O=S(=O)([N-]S(=O)(=O)C(F)(F)F)C(F)(F)F is above or exactly 8.
A: no (0)

Q: Kindly determine if activity coefficient recorded for CCC(C)CC [3-methylpentane] + COCC[N+]1(C)CCOCC1.O=S(=O)([N-]S(=O)(=O)C(F)(F)F)C(F)(F)F is above or exactly 8.
A: yes (1)

Q: Kindly determine if activity coefficient recorded for CCOCC [diethyl ether] + COCC[N+]1(C)CCOCC1.O=S(=O)([N-]S(=O)(=O)C(F)(F)F)C(F)(F)F is above or exactly 8.
A: no (0)

Q: Kindly determine if activity coefficient recorded for CCCCC [pentane] + COCC[N+]1(C)CCOCC1.O=S(=O)([N-]S(=O)(=O)C(F)(F)F)C(F)(F)F is above or exactly 8.
A: yes (1)
